test system: Liver microsomes; assay: Intrinsic clearance in rat liver microsome; type: ADME
experimentalEndpoint: clearance (mL/min/g)
Value expressed in mL/min/g; do not type the unit.

Q) Provide the reported clearance (system: Liver microsomes) for CC[C@H]1CCCCN1C[C@@H](O)CNS(=O)(=O)c1cccc2ccccc12
A) 8

---

assay: Half life in rat at 1 mg/kg, iv; type: ADME, organism-based; design: dose 1 mg/kg, route intravenous; settings: in vivo
experimentalEndpoint: half-life
Note to self: number, then unit, no commentary.

Q) Write down half-life measured for item CC[C@H]1CCCCN1C[C@@H](O)CNS(=O)(=O)c1cccc2ccccc12
A) 1 h

---

assay: Oral bioavailability in rat at 5 mg/kg; format: ADME, organism-based; settings: in vivo
experimentalEndpoint: bioavailability
Note to self: number, then unit, no commentary.

Q) Write down bioavailability measured for item CC[C@H]1CCCCN1C[C@@H](O)CNS(=O)(=O)c1cccc2ccccc12
A) 4%

---

assay: Half life in rat at 5 mg/kg, sc; type: ADME, organism-based; design: dose 5 mg/kg, route subcutaneous; conditions: in vivo
experimentalEndpoint: half-life (min)
Value expressed in min; do not type the unit.

Q) Write down half-life measured for item CC[C@H]1CCCCN1C[C@@H](O)CNS(=O)(=O)c1cccc2ccccc12
A) 54

---

Molecular target: UniProt:P48067
Sequence (P48067 whole entry): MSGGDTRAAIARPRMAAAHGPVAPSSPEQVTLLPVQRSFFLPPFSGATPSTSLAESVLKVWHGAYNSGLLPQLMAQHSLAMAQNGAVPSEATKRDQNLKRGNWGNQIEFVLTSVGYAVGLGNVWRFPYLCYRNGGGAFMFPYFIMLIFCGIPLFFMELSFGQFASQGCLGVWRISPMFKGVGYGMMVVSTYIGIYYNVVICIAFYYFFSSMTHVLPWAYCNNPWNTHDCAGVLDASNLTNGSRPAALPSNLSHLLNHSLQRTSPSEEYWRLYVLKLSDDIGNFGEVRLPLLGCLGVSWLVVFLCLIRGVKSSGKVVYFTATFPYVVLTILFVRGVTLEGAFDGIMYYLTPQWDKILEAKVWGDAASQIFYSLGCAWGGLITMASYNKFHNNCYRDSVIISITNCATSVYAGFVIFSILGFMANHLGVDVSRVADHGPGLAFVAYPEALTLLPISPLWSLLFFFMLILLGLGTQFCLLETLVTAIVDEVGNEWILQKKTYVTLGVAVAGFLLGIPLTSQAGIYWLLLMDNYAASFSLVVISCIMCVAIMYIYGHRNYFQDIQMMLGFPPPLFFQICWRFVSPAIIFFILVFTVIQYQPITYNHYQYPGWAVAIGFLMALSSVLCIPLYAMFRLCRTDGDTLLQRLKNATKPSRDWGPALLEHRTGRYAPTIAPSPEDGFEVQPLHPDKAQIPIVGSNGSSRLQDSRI
Record form. Attribute: pIC50. Fill in for each entry.
Keep in mind that pIC50 stands for -log10 of concentration in molar terms.

Q) Write down pIC50 measured for item CCc1cc(Br)ccc1S(=O)(=O)NC[C@H](O)CN1CC(C)CC1C (stereo partly drawn)
A) 5.50

Q) Write down pIC50 measured for item CC1CCC(C)N1C[C@H](O)CNS(=O)(=O)c1cccc2ccccc12 (stereo partly drawn)
A) 5.10

Q) Write down pIC50 measured for item CC(C)C1CCCCN1C[C@@H](O)CNS(=O)(=O)c1cccc2ccccc12 (single isomer, unassigned; isomer A)
A) 5.40

Q) Write down pIC50 measured for item CC(C)(C)C1CCCN1C[C@@H](O)CNS(=O)(=O)c1cccc2ccccc12 (single isomer, unassigned; isomer A)
A) 5.10

Q) Write down pIC50 measured for item CC1CCCCN1C[C@@H](O)CNS(=O)(=O)c1cccc2ccccc12 (stereo partly drawn)
A) 6.50

Q) Write down pIC50 measured for item O=S(=O)(NC[C@H](O)CN1CCCC1C1CCCCC1)c1cccc2ccccc12 (single isomer, unassigned; isomer B)
A) 5.20

Q) Write down pIC50 measured for item O=S(=O)(NC[C@H](O)CN1CCCC1C1CC1)c1cccc2ccccc12 (single isomer, unassigned; isomer B)
A) 6.30

Q) Write down pIC50 measured for item CC1CCCN1C[C@@H](O)CNS(=O)(=O)c1cccc2ccccc12 (stereo partly drawn)
A) 6.00

---

test: Plasma clearance in rat at 1 mg/kg, iv; type: ADME, organism-based; set-up: dose 1 mg/kg, route intravenous
experimentalEndpoint: clearance (mL/min/kg)
Value expressed in mL/min/kg; do not type the unit.

Q) Write down clearance measured for item CC[C@H]1CCCCN1C[C@@H](O)CNS(=O)(=O)c1cccc2ccccc12
A) 18

---

Record form. Attribute: IC50. Fill in for each entry.
Target: Sodium- and chloride-dependent glycine transporter 1 (Homo sapiens, UniProt P48067)
Sequence (P48067 whole entry): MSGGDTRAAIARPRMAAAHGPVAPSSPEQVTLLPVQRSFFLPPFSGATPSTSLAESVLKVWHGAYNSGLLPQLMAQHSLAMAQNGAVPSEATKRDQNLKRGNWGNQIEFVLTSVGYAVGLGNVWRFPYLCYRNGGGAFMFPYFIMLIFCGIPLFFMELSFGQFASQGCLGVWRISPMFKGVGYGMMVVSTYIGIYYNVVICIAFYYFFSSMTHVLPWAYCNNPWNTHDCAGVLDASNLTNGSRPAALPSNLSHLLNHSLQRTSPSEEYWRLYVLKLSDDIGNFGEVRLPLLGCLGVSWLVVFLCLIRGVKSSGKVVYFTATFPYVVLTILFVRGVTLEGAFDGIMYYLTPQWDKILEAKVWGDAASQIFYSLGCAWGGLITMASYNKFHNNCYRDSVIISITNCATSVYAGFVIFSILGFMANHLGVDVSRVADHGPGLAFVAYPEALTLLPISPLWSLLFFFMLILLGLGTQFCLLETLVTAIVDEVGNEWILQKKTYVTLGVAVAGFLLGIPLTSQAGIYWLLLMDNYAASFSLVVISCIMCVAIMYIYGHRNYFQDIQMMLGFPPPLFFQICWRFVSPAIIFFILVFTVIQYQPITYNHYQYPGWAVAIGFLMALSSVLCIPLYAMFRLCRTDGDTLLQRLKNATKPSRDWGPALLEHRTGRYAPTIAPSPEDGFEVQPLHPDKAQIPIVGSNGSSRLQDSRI

Q) Write down IC50 measured for item CCC1CCC(C)N(C[C@@H](O)CNS(=O)(=O)c2cccc3ccccc23)C1 (stereo not given in full)
A) 1000 nM

Q) Write down IC50 measured for item CC(C)CC1CCCN1C[C@@H](O)CNS(=O)(=O)c1cccc2ccccc12 (single isomer, unassigned; isomer A)
A) 6310 nM

Q) Write down IC50 measured for item CCCN(C[C@@H](O)CNS(=O)(=O)c1cccc2ccccc12)C(C)CC (stereo not given in full)
A) 1260 nM

Q) Write down IC50 measured for item Cc1cc(S(=O)(=O)NC[C@H](O)CN2CC(C)CC2C)c(C)cc1Cl (stereo not given in full)
A) 3160 nM

Q) Write down IC50 measured for item CC1CC(C)N(C[C@@H](O)CNS(=O)(=O)c2cccc(Cl)c2Cl)C1 (stereo not given in full)
A) 2510 nM

---

experiment: AUC (0 to infinity) in rat brain at 1 mg/kg, iv; assay type: ADME, organism-based; design: time infinity, dose 1 mg/kg, route intravenous
experimentalEndpoint: AUC(0-inf) (ng·h/mL)
Value expressed in ng·h/mL; do not type the unit.

Q) Write down AUC(0-inf) measured for item CC[C@H]1CCCCN1C[C@@H](O)CNS(=O)(=O)c1cccc2ccccc12
A) 587
